Where do the numbers come from? From patent US20250052767A1.

target: T1, human CD28 (human, UniProt P10747 19-220, On cells CD28 is a disulfide linked homodimer and a glycoprotein; one copy of the chain is given.); test: flow cytometry, PE-conjugated antibody on un-fixed human peripheral blood cells
T1 construct: also called T-cell specific surface glycoprotein CD28
T1 sequence (P10747 19-220 limits assumed): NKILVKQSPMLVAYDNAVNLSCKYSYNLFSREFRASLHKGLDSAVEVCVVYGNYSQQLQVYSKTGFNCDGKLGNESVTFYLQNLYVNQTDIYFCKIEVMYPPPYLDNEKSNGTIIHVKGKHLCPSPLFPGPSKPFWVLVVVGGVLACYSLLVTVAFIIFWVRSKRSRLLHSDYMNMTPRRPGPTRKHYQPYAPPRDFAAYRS
Response key: y means S/N on un-fixed cells >= 90; n means S/N on un-fixed cells < 90.

[
  {
    "binder": "exemplary anti-CD28 antibody AB3 (antibody, V domains shown, Mouse hybridoma monoclonal antibody; Conjugated to PE in the staining assays; also called antibody 3; clone 3) VH: KVQLQQSGAGLVKPGASVKLSCKTSGYTFSDYIINWVKQRSGQGLEWIGWFYPGSGSINYNEKFKDKATLTADKSSSTVYMDLSRLTSEDSAVYFCARREDRGGYDAFDYWGQGTTLTVSS VL: DIQMTQSPASLSVSVGETVTITCRASENIYSNLAWYQQKQGKSPQLLVYAATKLADGVPSRFSGSGSGTQYSLRINSLQSEDFGSYYCQHFWGTPWTFGGGTKLEIK",
    "class-assignment": "y"
  },
  {
    "binder": "exemplary anti-CD28 antibody AB8 (antibody, V domains shown, Mouse hybridoma monoclonal antibody; Conjugated to PE in the staining assays; also called antibody 8; clone 8) VH: EVKLVESGGGLVQPGGSLKLSCAASGFTFSSYTMSWVRQTPEKRLEWVAYISNGGGTTYYPDTVKGRFTISRDNAKNTLYLQMSSLKSEDTAVYYCARHRPYDYDVLDYWGQGTTLTVSS VL: DIVMTQSQKFMSTSVGDRVSITCKASQIVGTDVAWYQQKPGQSPKILIFSASNRYTGVPDRFTGSGSGTDFTLTISNMQSEDLADYFCHQYSRYPYTFGGGTKLEIK",
    "class-assignment": "n"
  },
  {
    "binder": "exemplary anti-CD28 antibody AB7 (antibody, V domains shown, Mouse hybridoma monoclonal antibody; Conjugated to PE in the staining assays; also called antibody 7; clone 7) VH: KVQLQQSGAGLVKPGASVKLSCKASGYTFSDYIINWVKQRSGQGLEWIGWFYPGSGSINYNEKFKDKATLTADKSSSTVYMDLSRLTSEDSAVYFCARREDRGGYDAFDYWGQGTTLTVSS VL: DIQMTQSPASLSVSVGETVTITCRTSENIYSNLAWYQQKQGKSPQLLVYAATKLADGVPSRFSGSGSGTQYSLRINSLQPEDFGSYYCQHFWGTPWTFGGGTKLEIK",
    "class-assignment": "y"
  },
  {
    "binder": "exemplary anti-CD28 antibody AB4 (antibody, V domains shown, Mouse hybridoma monoclonal antibody; Conjugated to PE in the staining assays; also called antibody 4; clone 4) VH: EVQLQQSGPELEKPGASVKMSCKASGYSFTDYNMNWVKQSNGKSLEWIGIIDPYYGATTYNQRFKGKATLTVDKSSSTAYMQLKSLTSEDSAVYYCARFGFYGAMDYWGQGISVTVSS VL: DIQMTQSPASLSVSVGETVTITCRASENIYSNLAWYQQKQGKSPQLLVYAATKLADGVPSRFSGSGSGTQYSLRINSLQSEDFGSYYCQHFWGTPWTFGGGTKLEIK",
    "class-assignment": "n"
  },
  {
    "binder": "exemplary anti-CD28 antibody AB6 (antibody, V domains shown, Mouse hybridoma monoclonal antibody; Conjugated to PE in the staining assays; also called antibody 6; clone 6) VH: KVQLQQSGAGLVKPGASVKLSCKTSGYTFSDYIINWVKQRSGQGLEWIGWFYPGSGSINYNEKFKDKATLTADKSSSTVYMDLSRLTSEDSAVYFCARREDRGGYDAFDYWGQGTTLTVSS VL: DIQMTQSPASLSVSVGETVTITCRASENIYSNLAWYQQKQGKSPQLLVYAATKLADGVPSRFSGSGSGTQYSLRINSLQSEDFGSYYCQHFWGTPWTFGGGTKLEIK",
    "class-assignment": "y"
  },
  {
    "binder": "exemplary anti-CD28 antibody AB5 (antibody, V domains shown, Mouse hybridoma monoclonal antibody; Conjugated to PE in the staining assays; also called antibody 5; clone 5) VH: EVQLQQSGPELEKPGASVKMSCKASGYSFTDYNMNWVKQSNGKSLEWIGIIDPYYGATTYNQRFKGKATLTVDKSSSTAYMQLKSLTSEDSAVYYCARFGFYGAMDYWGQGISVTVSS VL: DVVVTQTPLSLPVSFGDQVSISCRSSQSLANSFGNTYLSWYLHKPGQSPQLLIYGISNRFSGVPDRFSGSGSGTDFTLKISTIKPEDLGVYYCLQGTHQPFTFGSGTTLELK",
    "class-assignment": "y"
  }
]
